test: physchem; conditions: pH 7.4 buffer
Catalogue of solubility thermodynamic values
MEASURED_PROPERTY: solubility thermodynamic (µM)

Cc1sc(N)nc1-c1ccccc1    955
C[C@@H](Cc1ccccc1)Oc1cc(OC2CCOCC2)cc(C(=O)Nc2ccc(C(=O)O)cn2)c1    105
COc1cccc(N(C)c2ccnc(Nc3cc(N4CCOCC4)cc(N4CCOCC4)c3)n2)n1    15.5
C[C@@H](Oc1cccc2ncnc(Nc3ccc4c(cnn4Cc4ccccn4)c3)c12)C(=O)N1CCCC1    110
COc1ccc(C(=O)Nc2cccc(NC(=O)c3cccc(N(C)C)c3)c2)cc1OC    1.4
CC(=O)NC1CN(c2ccc(Nc3ncc(F)c(-c4cnc(C)n4C(C)C)n3)cc2)C1    120
Cc1ccc(NC(=O)c2ccnc(N3CCOCC3)c2)cc1-n1c(C)nc2ccc(N3CCN(C)CC3)cc2c1=O    851
CN(C)CCNc1cc(-c2ccccc2)nc2cc(-c3ccc(F)cc3)nn12    2.1
O=c1cc(-c2cccnc2)[nH]c2cc(C(O)c3ccccc3)ccc12 (stereo not given)    288
COc1ccc(Cn2cc3c(=O)n(C)c(=O)n(CC(C)C)c3c2)cc1    17
CNC(=O)[C@@H](C)Oc1cccc2ncnc(Nc3ccc4c(cnn4Cc4ccccn4)c3)c12    6
CCOC(=O)c1ccc(OCCC2CN(c3ccc(C)nn3)CCO2)cc1 (stereo not given)    15.8
N#Cc1cnn(-c2ccccc2)c1NC(=O)CN1CCN(c2ccccc2)CC1    25.1
O=C(CC(c1ccccc1)S(=O)(=O)c1ccccc1)c1ccccc1 (stereo not given)    1.1
COc1ccc(NCc2ccc(C(=O)Nc3ccccc3N)cc2)cc1OC    57.5
CS(=O)(=O)Nc1cccc(Nc2nccc(Nc3c(Cl)ccc4c3OCO4)n2)c1    7.2
C[C@@H](Oc1cccc2ncnc(Nc3ccc4c(cnn4Cc4cscn4)c3)c12)C(=O)N1CCOCC1    151
CCn1c2ccccc2c2cc(NC(=O)c3cc(C)on3)ccc21    2.5
N#CC1(NC(=O)[C@@H]2CCCC[C@H]2C(=O)N2CCc3[nH]c4ncccc4c3C2)CC1    1510
Cc1ccc2nc(-c3ccccc3)cc(O)c2c1    22.9
Cc1cnc(NC(=O)c2ccccn2)s1    200
COc1cccc(Nc2nnc(C(=O)Nc3ccc(N4CCOCC4)nc3)o2)c1    4.6
COc1cc(CCc2cc(Nc3ccnc(NCc4cc(C)no4)n3)n[nH]2)cc(OC)c1    0.6
CC(Nc1ncnc2ccccc12)c1ccccc1 (stereo not given)    123
Nc1ccc2cccc(Nc3ncccn3)c2n1    26.9
CC(C)(Cc1cccc(CC(=O)NCc2cccc(-c3ccc(O)cc3)c2)c1)NC[C@H](O)c1ccc(O)c(NS(C)(=O)=O)c1    57.5
Cc1ccc2[nH]ccc2c1-c1nc(N2CCOCC2)cc(C2(S(C)(=O)=O)CC2)n1    95.5
C[C@@H]1CN(c2nc(N3CCOCC3)c3ccc(-c4ccccc4)nc3n2)C[C@H](C)O1    1.8
N#CC1(NC(=O)[C@@H]2CCCC[C@H]2C(=O)N2CCc3[nH]c4ccccc4c3C2)CC1    912
CCOC(=O)c1ccc(OCCC2CN(c3ccc(C)nn3)C2)cc1    347
CCc1cccc(CC)c1NC(=O)N1Cc2n[nH]c(NC(=O)c3ccc(N4CCN(C)CC4)cc3)c2C1    107
CC(C)(C)NS(=O)(=O)c1cncc(-c2ccc3nc(N)nn3c2)c1    63.1
O=C(NCC(=O)N(CCO)c1ccccc1)c1cc2cc(Cl)ccc2[nH]1    1.8
Cc1nc(S(C)(=O)=O)ccc1Nc1ncnc(OC2CCN(C(=O)OC(C)C)CC2)c1C    12.3
COCC[C@H](Oc1ncnc2c1cnn2-c1ccccc1Cl)C(=O)Nc1ccc(C)cn1    100
Cc1ccc(NC(=O)c2ccnc(N3CCOCC3)c2)cc1Nc1ccnc(Cl)n1    15.1
CCOc1cc(-c2cccc3c(=O)cc(N4CCOCC4)oc23)ccc1NC(=O)CN1CCOCC1    1.4
NS(=O)(=O)c1cccc(Nc2nccc(Nc3cccc4[nH]ncc34)n2)c1    51.3
CC(C)C[C@H](NC(=O)N1CCOCC1)C(=O)N[C@H](/C=C/S(=O)(=O)c1ccccc1)CCc1ccccc1    17
CS(=O)(=O)c1ccc([C@@H](CC2CCCC2)C(=O)Nc2cnc([C@H](O)CO)cn2)cc1Cl    468

====

assay: in vitro; details: human, plasma, PPB
Could you label it MET if measured fraction unbound at 5 h is 0.06 or higher, and NOT MET otherwise?

CCCCCCc1nc2c(N)nc3ccccc3c2n1Cc1ccccc1    NOT MET
CN1CCN(C(=O)c2cccc(Cc3n[nH]c(=O)c4ccccc34)c2)CC1    MET
C[C@H](CO)Nc1nc(SCc2cccc(F)c2F)nc2nc(NS(C)(=O)=O)sc12    NOT MET
CN1CCc2cc(Cl)c(O)cc2[C@@H](c2ccccc2)C1 [SCH-23390]    MET

====

experiment: physchem; conditions: octan-1-ol/water, pH 7.4, LogD7.4
Catalogue of logD values
MEASURED_PROPERTY: logD

O=C(NC1Cc2ccccc2N(C[C@@H](O)CO)C1=O)c1cc2cc(Cl)sc2[nH]1 (some centres not stated)    3.37
CC(=O)Nc1ccc2cnn(-c3cc(NC4CC4)n4ncc(C#N)c4n3)c2c1    3.44
Cc1ccc(Oc2ccc(Nc3ncnc4[nH]nc(OCCN5CCC(O)CC5)c34)cc2Cl)cn1    3.4
COc1ccc2nc(C)cc(-n3cc(CN4CCN(C(C)=O)CC4)nn3)c2c1    1.3
Cc1ccc(-c2c[nH]nn2)cc1    2.58
CN(c1ccccc1)c1ccnc(Nc2cc(N3CCOCC3)cc(N3CCOCC3)c2)n1    3.47
COCCNc1nc(N)c2nc(O)n(Cc3ccccc3)c2n1    2.18
COC(=O)COc1ccc(C(=O)Nc2ccc(F)cc2)cn1    2.43
COc1ccccc1CN(C)Cc1cccc(CCNC[C@H](O)c2ccc(O)c3[nH]c(=O)sc23)c1    1.52
Clc1ccc2[nH]ccc2c1    3.28
CC(C)N(c1nnc(N)s1)C(C)C    1.49
CCN(CC)CCOc1ccc(/C(=C(/Cl)c2ccccc2)c2ccccc2)cc1 [ENCLOMIPHENE]    4.09
O=C(NO)C1COC(c2ccc(F)c(C(F)(F)F)c2)=N1 (configuration not stated)    1.53
NC(=O)c1cc2ccccc2nc1N    1.07
COc1ccc(OC)c(CNc2[nH]nc3ccnc(Oc4ccccc4)c23)c1    4.25
Cn1c2ccccc2c2cc(NC(=O)CCc3ccncc3)ccc21    3.8
NC(=O)c1cnc(N[C@H]2CCCNC2)c2cc(-c3ccc(Cl)c(F)c3)sc12    2.76
CCCc1c(C(=O)Nc2ccc(F)cc2C)cnn1-c1ccccc1    3.89
CC1(C)C(=O)N(c2ccc(SC(F)(F)F)cc2)C(=O)N1Cc1ccnc(N2CCOCC2)c1    3.73
Cc1cc(CCCOc2c(C)cc(-c3noc(C(F)(F)F)n3)cc2C)on1 [PLECONARIL]    3.63
NC(=O)Nc1sc(-c2ccc(OCCN3CCCCC3)cc2)cc1C(N)=O    1.2
CN1CCN(CC(=O)Nc2ccc(-c3cccn4c(=O)cc(N5CCOCC5)nc34)c3sc4ccccc4c23)CC1    2.6

====

assay: physchem; details: octan-1-ol/water, pH 7.4, LogD7.4
Just so you know, the groups by logD go like this: category 1 (below 2), category 2 (2 to below 3), category 3 (3 or more)

C[C@@H](Oc1cccc2ncnc(Nc3ccc4c(cnn4Cc4ccccn4)c3)c12)C(=O)N1CCOCC1    category 2
CCC(CC)NC(=O)c1cnn(-c2ccccc2Cl)c1NS(=O)(=O)c1ccc(C)cc1    category 1
CCNc1nc(N)c(C(=O)c2ccc(Cl)s2)s1    category 3
Cc1nc(C)c(-c2ccc([C@H]3CC[C@H](CC(=O)O)CC3)c(F)c2)nc1C(N)=O    category 1
COc1ccc(-c2nc(N3CCOCC3)nc(O)c2C#N)cc1    category 1
Cc1ccc(S(=O)(=O)Nc2c(C(=O)N(C)C3CCCCC3)c(C)nn2-c2ccccc2)cc1    category 1
COc1cc2ncnc(Oc3cnn(CC(=O)Nc4ccc(N(C)C)cn4)c3)c2cc1OC    category 2
CC[C@@H](Nc1c(Nc2cccc(C(=O)N(C)C)c2O)c(=O)c1=O)c1ccccc1    category 2
C[C@H](CO)Nc1nc(SCc2ccccc2)nc2[nH]c(=O)[nH]c12    category 2
Nc1ncnc2c1nc(Sc1nc3cccc(Cl)c3s1)n2CCO    category 2
COc1cc(Nc2cc(Oc3cccnc3)ccn2)cc(OC)c1OC    category 2
COc1ccc(-c2nc3n(c2Br)CCC3)cc1    category 3
C[C@@H](NC(=O)[C@H]1CCCCN1)c1ccc(Nc2ncc3cc(-c4ccncc4)ccc3n2)cc1    category 2
O=C(Nc1ccccc1-c1ccccc1)OC1CCN(CCCCCCCCCNC[C@H](O)c2ccc(O)c3[nH]c(=O)ccc23)CC1    category 2
O=C(Nc1ccc(Cl)c(Cl)c1)N1CCN(C[C@@H]2CCCN(CC3CC3)C2)CC1    category 2
COC1/C=C/OC2(C)Oc3c(C)c(O)c4c(c3C2=O)C(=O)C=C(NC(=O)/C(C)=C\C=C\C(C)C(O)C(C)C(O)C(C)C(OC(C)=O)C1C)C4=O (stereo not given)    category 1
Cn1c(CN2CCN(c3cccc(Cl)c3)CC2)nc2ccccc21    category 3
